Source: patent US20260200919A1

# target system: human recombinant kinase full-length wildtype AKT1 (Homo sapiens)
# Construct: Purified human recombinant kinase full-length wildtype AKT1 was expressed in insect cells
# Sequence (P31749 whole entry): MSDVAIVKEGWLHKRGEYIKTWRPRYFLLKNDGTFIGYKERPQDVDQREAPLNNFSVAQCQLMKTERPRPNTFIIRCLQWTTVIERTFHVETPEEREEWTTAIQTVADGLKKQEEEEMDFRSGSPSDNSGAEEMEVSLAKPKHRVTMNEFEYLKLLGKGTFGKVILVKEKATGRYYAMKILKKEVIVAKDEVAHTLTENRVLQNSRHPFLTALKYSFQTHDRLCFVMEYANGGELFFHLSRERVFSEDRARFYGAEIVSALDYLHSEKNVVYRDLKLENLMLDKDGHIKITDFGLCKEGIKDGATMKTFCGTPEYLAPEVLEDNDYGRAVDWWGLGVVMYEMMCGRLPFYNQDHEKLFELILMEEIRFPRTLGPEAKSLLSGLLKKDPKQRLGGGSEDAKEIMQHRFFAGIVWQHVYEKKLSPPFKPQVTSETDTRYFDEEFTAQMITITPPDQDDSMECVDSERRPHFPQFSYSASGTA
# protocol description: AKT1 kinase assay (wildtype, TR-FRET, Lance)
# setup conditions: 0.6 nM wildtype AKT1, 50 nM Ulight-CREBtide, either 50 μM ATP or 2 mM ATP (not specified which), 60 min at RT
parameter measured: IC50

Would you please look over these solved cases?
1) Nc1ncccc1-c1nc2cc(-c3ccc(NC(=O)c4ccccc4)cc3)cnc2n1-c1ccc(CNC(=O)c2cccc(CC(=O)O)c2)cc1 [Compound 86] ... < 500 nM
2) Nc1ncccc1-c1nc2ccc(-c3ccccc3)nc2n1-c1ccc(CNC(=O)c2cccc(S(=O)(=O)O)c2F)cc1 [Compound 9] ... < 500 nM
3) Nc1ncccc1-c1nc2ccc(-c3ccccc3)nc2n1-c1ccc(CNC(=O)c2ccc(CC(=O)O)cc2)cc1 [Compound 30] ... < 500 nM

// for each compound below, give its IC50
1. Nc1ncccc1-c1nc2ccc(-c3cccnc3)nc2n1-c1ccc(CNC(=O)c2ccc(CC(=O)O)cc2)cc1 [Compound 95]
2. Nc1ncccc1-c1nc2ccc(-c3ccccc3)nc2n1-c1ccc(CNC(=O)c2cccc(CC(=O)O)c2)c(F)c1 [Compound 50]

Result:
1. < 500 nM
2. > 500 nM

// for each compound below, give its IC50
1. Cc1cc(C(=O)O)ccc1C(=O)Nc1ccc(-n2c(-c3cccnc3N)nc3ccc(-c4ccccc4)nc32)cn1 [Compound 63]
2. CC(c1ccc(C(=O)O)cc1)N1CCC(c2ccc(-n3c(-c4cccnc4N)nc4ccc(-c5ccccc5)nc43)cc2)C1 (centres unmarked) [Compound 171]
3. Cc1cc(C(=O)O)ccc1C(=O)Nc1ccc(-n2c(-c3cccnc3N)nc3ccc(-c4ccccc4)nc32)cc1F [Compound 66]
4. Cc1nc(NC(=O)c2ccc(C(=O)O)c(F)c2)ccc1-n1c(-c2cccnc2N)nc2ccc(-c3ccccc3)nc21 [Compound 154]
5. COC(=O)Cc1ccc(C(=O)NCc2ccc(-n3c(-c4cccnc4N)nc4cc(-c5cccnc5)cnc43)cc2)cc1 [Compound 87]
6. Nc1ncccc1-c1nc2ccc(-c3cccnc3)nc2n1-c1ccc(CNC(=O)c2cccc(CC(=O)O)c2)cc1 [Compound 96]
7. Nc1ncccc1-c1nc2ccc(-c3ccccc3)nc2n1-c1ccc(C2CN(Cc3cccc(CC(=O)O)c3)C2)cc1 [Compound 79]

Result:
["< 500 nM", "< 500 nM", "> 500 nM", "< 500 nM", "< 500 nM", "< 500 nM", "< 500 nM"]
